Measured values drawn from patent US12410171B2 for this set.

# testedTarget: TPM3-TRKA fusion protein (Homo sapiens, UniProt P04629)
# Construct: The resulted chimeric proteins always retain the kinase domain of TRK proteins; TPM3 (fusion partner, N-terminal part of tropomyosin alpha-3, P06753); endogenous in cells; host or cells: KM12 colon cancer cells; the other entry of the earlier key: TPM3 (P06753, Tropomyosin alpha-3 chain)
# Sequence (P04629 with tags, fused parts or gaps): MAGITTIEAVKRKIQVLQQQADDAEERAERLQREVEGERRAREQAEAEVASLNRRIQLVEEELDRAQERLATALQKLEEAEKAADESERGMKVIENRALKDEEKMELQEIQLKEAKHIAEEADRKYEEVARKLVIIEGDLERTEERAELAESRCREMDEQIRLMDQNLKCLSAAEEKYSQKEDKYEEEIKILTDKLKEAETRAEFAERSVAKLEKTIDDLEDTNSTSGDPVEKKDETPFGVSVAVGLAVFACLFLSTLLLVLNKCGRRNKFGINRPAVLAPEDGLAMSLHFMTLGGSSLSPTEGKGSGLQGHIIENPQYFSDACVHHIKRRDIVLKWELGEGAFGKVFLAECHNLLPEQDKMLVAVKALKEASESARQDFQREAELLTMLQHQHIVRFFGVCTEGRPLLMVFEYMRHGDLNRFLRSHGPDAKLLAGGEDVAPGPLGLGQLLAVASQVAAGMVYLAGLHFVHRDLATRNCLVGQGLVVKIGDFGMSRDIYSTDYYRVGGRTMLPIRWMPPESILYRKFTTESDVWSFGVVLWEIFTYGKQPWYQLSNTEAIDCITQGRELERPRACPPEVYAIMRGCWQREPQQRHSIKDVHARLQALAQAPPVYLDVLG
# methodNotes: TPM3-TRKA fusion protein levels in KM12 cells (Western blot)
# Format: cell-based
# conditionDescription: 16 h; TPM3-TRKA degradation in KM12 cells at 10 nM compound, category of percentage degradation; read-out: Degradation (at 10 nM)
# Experimental: KM12 cells were treated with DMSO or indicated compounds at 100 nM for 16 hours. KM12 cells were treated with DMSO or indicated compounds at 0. 1 nM, 1 nM or 10 nM for 16 hours. […] Cultured cells were washed with cold PBS once and lysed in cold RIPA buffer supplemented with protease inhibitors and phosphatase inhibitors (Beyotime Biotechnology). […] Total protein concentrations in the lysates were determined by BCA assays (Beyotime Biotechnology). […]
measure: percent degradation of TPM3-TRKA protein at 0.01 µM

// known answers, use as guide
Under TPM3-TRKA fusion protein (Homo sapiens, UniProt P04629): percent degradation of TPM3-TRKA protein at 0.01 µM value of Cn1c(=O)n(C2CCC(=O)NC2=O)c2cccc(CCCN3CCN(c4cccc(-c5cnc6ccc(N7CCC[C@@H]7c7cccc(F)c7)nn56)n4)CC3)c21 (some centres unmarked) ?
> 80%

What percent degradation of TPM3-TRKA protein at 0.01 µM appears in the records for this compound with TPM3-TRKA fusion protein (Homo sapiens, UniProt P04629)? O=C1CCC(N2C(=O)c3ccc(N4CCN(c5ccc(C(=O)Nc6n[nH]c7ccc(Cc8cc(F)cc(F)c8)cc67)c(NC6CCOCC6)c5)CC4)cc3C2=O)C(=O)N1 (centres unmarked)
< 50%

Quick check: percent degradation of TPM3-TRKA protein at 0.01 µM on TPM3-TRKA fusion protein (Homo sapiens, UniProt P04629), item O=C1CCC(N2Cc3cc(NCCN4CCN(c5cccc(-c6cnc7ccc(N8CCC[C@@H]8c8cccc(F)c8)nn67)n5)CC4)ccc3C2=O)C(=O)N1 (some centres unmarked) ?
> 80%

Kindly state the measured percent degradation of TPM3-TRKA protein at 0.01 µM obtained for O=C1CCC(N2C(=O)c3cccc(NCCOCCOCCOCCOCCOCCC(=O)N4CCN(c5cccc(-c6cnc7ccc(N8CCC[C@@H]8c8cccc(F)c8)nn67)n5)CC4)c3C2=O)C(=O)N1 (some centres unmarked) with TPM3-TRKA fusion protein (Homo sapiens, UniProt P04629).
> 80%

More entries:
Please provide the recorded percent degradation of TPM3-TRKA protein at 0.01 µM for `O=C1CC[C@@H](N2C(=O)c3ccc(N4CC(N5CCN(c6ccc(C(=O)Nc7n[nH]c8ccc(Cc9cc(F)cc(F)c9)cc78)c(NC7CCOCC7)c6)CC5)C4)cc3C2=O)C(=O)N1` , tested on TPM3-TRKA fusion protein (Homo sapiens, UniProt P04629).
> 80%

Can you look up percent degradation of TPM3-TRKA protein at 0.01 µM on TPM3-TRKA fusion protein (Homo sapiens, UniProt P04629) for O=C1CCC(N2C(=O)c3ccc(NCCOCCOCCOCCOCCOCCC(=O)N4CCN(c5ccc(C(=O)Nc6n[nH]c7ccc(Cc8cc(F)cc(F)c8)cc67)c(NC6CCOCC6)c5)CC4)cc3C2=O)C(=O)N1 (centres unmarked) ?
> 80%

Which percent degradation of TPM3-TRKA protein at 0.01 µM is reported with TPM3-TRKA fusion protein (Homo sapiens, UniProt P04629) for this entry: Cn1c(=O)n(C2CCC(=O)NC2=O)c2cccc(C#CCN3CCN(c4ccc(C(=O)Nc5n[nH]c6ccc(Cc7cc(F)cc(F)c7)cc56)c(NC5CCOCC5)c4)CC3)c21 (centres unmarked) ?
> 80%

Which measured percent degradation of TPM3-TRKA protein at 0.01 µM belongs to O=C1CCC(N2C(=O)c3cccc(NCCC(=O)N4CCN(c5ccc(C(=O)Nc6n[nH]c7ccc(Cc8cc(F)cc(F)c8)cc67)c(NC6CCOCC6)c5)CC4)c3C2=O)C(=O)N1 (centres unmarked) , tested on TPM3-TRKA fusion protein (Homo sapiens, UniProt P04629)?
> 80%
